tested on: K-562 leukemia; assay: NCI tumour cell line growth inhibition, 48 h
Reported TGI values for a set of compounds
Measured property: TGI

1) CCCc1cc(=O)oc2c3c(c4c(c12)OC(C)(C)CC4)O[C@H](C)[C@@H](C)[C@H]3O	21.1 µM
2) O=C(N=C1N(c2ccccc2)C(=O)C(=O)N1c1ccccc1)c1ccccc1	> 100 µM
3) CC1(C)C(OC(=O)c2ccccc2)C[C@]23CCC[C@](C)(C[C@@H](O)C12)C3 (stereo partly specified)	54.8 µM
4) COC(=O)[C@@H](Cc1ccccc1)NNC(=O)OC(C)(C)C	> 100 µM
5) CC(C)(N=NC(C)(C)C(=N)N)C(=N)N	> 100 µM
6) O=C(CCN1CCCC1)CC(c1ccccc1)c1c(O)c2ccccc2oc1=O (stereo unspecified)	> 100 µM
7) N#CC(=N)c1ncn(CCO)c1NC(=O)C(F)(F)F	> 100 µM
8) COc1ccc(P2(=S)Oc3ccc(C(c4ccccc4)(c4ccccc4)c4ccccc4)cc3O2)cc1 (stereo unspecified)	33.8 µM
9) O=C(CON1C(=O)c2ccccc2C1=O)c1ccccc1	> 100 µM
10) CN(C(=O)c1ccccc1)C1CCCC(=O)CC1 (stereo unspecified)	> 100 µM
11) CCOC(=O)/C=C/C1=C(c2csc3ccccc23)c2ccccc2CC1	> 100 µM

* * *

test system: HOP-92 NSCLC; assay: NCI tumour cell line growth inhibition, 48 h
Record Satisfied whenever TGI is at 30 µM or higher; record Not satisfied when lower.

1. CC(=NC1CCCCC1)c1ccccc1O	Satisfied
2. CCOC(=O)c1cc(NC(=O)N(CCC#N)CCN(C(=O)N[C@@H](Cc2ccccc2)C(=O)N[C@@H](CC(C)C)C(=O)NC)c2ccccc2)ccc1OC	Satisfied
3. COc1ccc(C(=O)/C=C2\C(=O)Nc3ccc(Br)cc32)cc1	Not satisfied
4. O=C(O)CCCn1c(SCc2c(Cl)cccc2Cl)nc2ccsc2c1=O	Satisfied
5. Cn1c(=O)c2c(nc3sc4nc5ccccc5nc4n32)n(C)c1=O	Satisfied
6. COc1ccc(P2(=S)Oc3ccc(C(c4ccccc4)(c4ccccc4)c4ccccc4)cc3O2)cc1 (configuration not stated)	Satisfied
7. Cc1cccc(C)c1NC(=O)/C(Cc1nc2ccc([N+](=O)[O-])cc2[nH]c1=O)=N\NC(N)=O	Satisfied
8. O=C1c2ccccc2CCC1C(O)(C(F)(F)F)C(F)(F)F (configuration not stated)	Satisfied
9. NC(=O)c1cccc(N2Cc3ccccc3OC3=C2C(=O)c2c(O)ccc(O)c2C3=O)c1	Not satisfied
10. CC(=O)[CH-]C(C)=O.CC(=O)[CH-]C(C)=O.[CH2-]CCCCCCC.[CH2-]CCCCCCC.[Sn+4]	Satisfied
11. c1ccc([P+](CCN2Cc3ccccc3C2)(c2ccccc2)c2ccccc2)cc1	Not satisfied
12. Cc1nn2c(C(=O)N/N=C/c3ccccc3O)c(C)nc2s1	Satisfied
13. CN(C)CCNc1ccc2c(=O)n(CCN(C)C)c(=O)n3c4ccccc4c(=O)c1c23	Not satisfied
14. CC(C)c1cc(C(F)(F)F)nc(NNc2nc(C(C)C)cc(C(F)(F)F)n2)n1	Satisfied
15. CO[C@H](C(=O)[C@@H](O)[C@@H](C)O)[C@@H]1Cc2cc3cc(O[C@H]4C[C@@H](O[C@H]5C[C@@H](O)[C@H](O)C(C)O5)[C@H](O)C(C)(O)O4)cc(O)c3c(O)c2C(=O)[C@H]1O[C@H]1C[C@@H](O[C@H]2C[C@@H](O[C@H]3C[C@@H](OC)[C@H](O)C(C)O3)[C@@H](O)C(C)O2)[C@H](O)C(C)O1 (some centres not stated)	Not satisfied
16. O=C(C[Si](CC(=O)c1cccc(C(F)(F)F)c1)CC(=O)c1cccc(C(F)(F)F)c1)c1cccc(C(F)(F)F)c1	Not satisfied
17. CCOC(=O)/C=C/C1=C(c2csc3ccccc23)c2ccccc2CC1	Satisfied
18. S=C1NCN2CCN(CC2)CNC(=S)C(=S)NCN2CCN(CC2)CNC1=S	Satisfied
19. CCCCCCCCC1=CCC(CN(C)C)C1=O (configuration not stated)	Satisfied

* * *

Listed here: items and their measured TGI.
system: T-47D breast; assay: NCI tumour cell line growth inhibition, 48 h
Measured property: TGI

1) COc1ccc(C(=O)/C=C2\C(=O)Nc3ccc(Br)cc32)cc1	26.3 µM
2) O=C(OCCN=C1c2ccccc2CCc2ccccc21)c1ccccc1	> 100 µM
3) O=C1c2ccc(O)cc2OC(c2cc(O)c(O)c(O)c2)C1O (stereo not drawn)	85.9 µM
4) Clc1ccc(/C=C2\CCCC3C2=Nc2ccccc2NC3c2ccc(Cl)cc2)cc1 (stereo not drawn)	> 87.9 µM
5) CO[C@H](C(=O)[C@@H](O)[C@@H](C)O)[C@@H]1Cc2cc3cc(O[C@H]4C[C@@H](O[C@H]5C[C@@H](O)[C@H](O)C(C)O5)[C@H](O)C(C)(O)O4)cc(O)c3c(O)c2C(=O)[C@H]1O[C@H]1C[C@@H](O[C@H]2C[C@@H](O[C@H]3C[C@@H](OC)[C@H](O)C(C)O3)[C@@H](O)C(C)O2)[C@H](O)C(C)O1 (stereo partly drawn)	> 16.8 µM
6) C[C@]12CCC3c4ccc(O)cc4CCC3C1CC[C@@]2(O)C#Cc1ccc(C#C/C=C\C#Cc2ccccc2N)cc1 (stereo partly drawn)	> 100 µM
7) N#Cc1c(-c2ccccc2)c(C#N)c(=S)n(C2OC(CO)C(O)C(O)C2O)c1N (stereo not drawn)	> 100 µM
8) CN(C)CCNc1ccc(NCCN(C)C)c2c1C(=O)c1ncsc1C2=O	> 100 µM
9) CC(C)(C)OC(=O)Nc1nnc(S(N)(=O)=O)s1	> 100 µM
10) COc1cccc2c1-c1ccccc1C2=O	> 100 µM
11) CC(C)C(Br)CC/C(CBr)=C(\Cl)CCl (stereo not drawn)	3.43 µM
12) COc1ccc(P2(=S)Oc3ccc(C(c4ccccc4)(c4ccccc4)c4ccccc4)cc3O2)cc1 (stereo not drawn)	28 µM
13) CCOC(=O)c1cc(NC(=O)N(CCC#N)CCN(C(=O)N[C@@H](Cc2ccccc2)C(=O)N[C@@H](CC(C)C)C(=O)NC)c2ccccc2)ccc1OC	> 100 µM
14) CC(C)(C)OC(=O)N1CCCC1=O	> 10 µM
15) COC(=O)C1=C(O)[C@H](C(=O)OC)C2(O)[C@@H](C(=O)OC)[C@H]1C[C@@H](c1ccc(OC(=O)n3ccnc3)cc1)[C@@H]2C(=O)OC	46.4 µM
16) Nc1nc(N)c2cc(CNc3ccc(C(=O)NC(CC(=O)O)C(=O)O)cc3)ccc2n1 (stereo not drawn)	> 100 µM
17) C=CC(=O)NC(O)(C(=O)OCC)C(F)(F)F (stereo not drawn)	> 100 µM
18) c1ccc2c(c1)SC1=Nc3sc4ccccc4[n+]3CN12	78 µM

* * *

test system: T-47D breast; test: NCI tumour cell line growth inhibition, 48 h; in the data active means GI50 below about 0.43 µM; inactive means the rest
Possible outcomes: active, inactive

1. CCOC(=O)c1cc2c(c3ccsc13)C1(C)CCC3c4ccc(OC)cc4CCC3C1C2 (configuration not stated)	inactive
2. NC(=O)c1cccc(N2Cc3ccccc3OC3=C2C(=O)c2c(O)ccc(O)c2C3=O)c1	active
3. C[C@@H](O)[C@H]1C(=O)N2C(C(=O)O)=C(SCCN=CN)C[C@H]12	inactive
4. COC(=O)C(N)CSC(c1ccccc1)(c1ccccc1)c1ccccc1 (configuration not stated)	inactive
5. CC1CN1C1=CC(=O)c2c(c(CO)cn2C)C1=O (configuration not stated)	inactive
6. Cc1cc(Nc2cccc(F)c2)nc(NCc2ccccc2)n1	inactive
7. COc1cc(O)c2c(=O)c(OC)c(-c3ccc(OC)c(OC)c3)oc2c1.[Co]	inactive
8. Cc1c2cnccc2c(C)c2c1c1cc(CO)ccc1n2C	active
9. FC(F)(F)c1ccc(-c2cncn2-c2ccccc2)cc1	inactive
10. COc1ccc(/C=C/C(=O)c2cccc(B(O)O)c2)cc1O	inactive
11. CCOC(=O)/C=C/C1=C(c2csc3ccccc23)c2ccccc2CC1	inactive
12. COC(=O)C1=C(O)[C@H](C(=O)OC)C2(O)[C@@H](C(=O)OC)[C@H]1C[C@@H](c1ccc(OC(=O)n3ccnc3)cc1)[C@@H]2C(=O)OC	inactive
13. COc1ccc2c(c1)C(=O)c1c-2n(CCCNCCO)c(=O)c2ccccc12	active
14. Cc1ccc(-c2cc(C(=O)N3N=C(c4ccc(N)cc4)CC3c3ccc(Cl)cc3)c3ccccc3n2)cc1 (configuration not stated)	inactive
15. CC(=O)c1cc2c(c(O)c1C)C(=O)C(=O)c1c(O)cccc1-2	inactive
16. O=C(C[Si](CC(=O)c1cccc(C(F)(F)F)c1)CC(=O)c1cccc(C(F)(F)F)c1)c1cccc(C(F)(F)F)c1	inactive
17. Cc1ccc(C2=C(c3ccc(C)cc3)C3(c4ccc(C)cc4)[C@@H](C#N)[C@H](C#N)C2(c2ccc(C)cc2)S3=O)cc1 (some centres not stated)	inactive

From: PubChem BioAssay (NCI)
